These measurements were taken from PubChem BioAssay.

Would you mind telling me the reported nuclear beta-catenin stimulation of each entry?
ASSAY TEXT: stimulators of nuclear beta-catenin in C2C12, primary screen, imaging, WNT3A-conditioned medium, mouse C2C12, NPC library (AID 1117326); note: reference of the scale not given here
RECORDED CONDITIONS: stimulation, at 2 µM, stronger effect = higher value
Numbers only, in %.

>>> obs_value("CCC1(C2=NCCN2)Cc2ccccc2O1 (stereo not given)")
-0.1
>>> obs_value("Nc1ccccc1")
2
>>> obs_value("CC1Sc2c(C(=O)O)c(=O)c3cc(F)c(N4CCNCC4)cc3n21 (stereo not given)")
2.5
>>> obs_value("C[C@@H]1C[C@@H]([C@H](O)CC2CC(=O)NC(=O)C2)C(=O)[C@@H](C)C1")
25.8
>>> obs_value("C#CCOC(C(=O)OCCN(C)C)(c1ccccc1)c1ccccc1")
0.9

For each of the items listed, what is its nuclear beta-catenin stimulation?
1. O=C(O)CCCCCCNC1c2ccccc2CCc2ccccc21
2. CCN1CCCC1CNC(=O)C(O)(c1ccccc1)c1ccccc1 (stereo not given)
3. O=C(O)CCCc1ccc(N(CCCl)CCCl)cc1
4. Cc1cccc(Cc2cnc[nH]2)c1C
5. Nc1nc(N)nc(NC2CC2)n1
6. Nc1ccccc1C(=O)O

Output:
1. -1.4
2. 1.9
3. -1.1
4. 8.1
5. 2.8
6. 1.3

For each of the items listed, what is its nuclear beta-catenin stimulation?
1. CCCC(C)C1(CC)C(=O)N=C(S)NC1=O (stereo not given)
2. C[C@]12Cc3nonc3C[C@@H]1CC[C@@H]1[C@@H]2CC[C@@]2(C)[C@H]1CC[C@]2(C)O
3. CN1C(=O)COc2c(C(=O)NC3CN4CCC3CC4)cc(Cl)cc21 (stereo not given)
4. COP(=O)(OC)OC=C(Cl)Cl
5. COC(=O)c1ccccc1C(=O)OC
6. CCC(C)(C)c1ccc(O)cc1
7. O=C(O)c1ccc2[nH]cc(CCCCN3CC=C(c4ccccc4)CC3)c2c1
8. C[N+]1(C)[C@@H]2CC[C@H]1CC(OC(=O)C(CO)c1ccccc1)C2 (stereo not given in full)

Output:
1: -0.3; 2: 0.4; 3: 3.8; 4: -1.3; 5: -0.6; 6: -0.2; 7: -1.8; 8: -0.7

###

TARGET DESC: Single-stranded DNA-binding protein (Escherichia coli (strain K12)) (UniProt P0AGE0)
ASSAY TEXT: E. coli SSB displacement from DNA, counter-screen for HCV NS3 helicase inhibitor project, biochemical, fluorescence polarization, NIH Clinical Collection (AID 743271)
RECORDED CONDITIONS: stronger effect = higher value, concentration not given here
MEASURE NAME: inhibition (%)
One number for each entry, in %.

Please review the following examples before continuing.
>>> obs_value("CN1C(=O)COc2c(C(=O)NC3CN4CCC3CC4)cc(Cl)cc21 (stereo unspecified)")
3.75
>>> obs_value("c1cncc(C2CCCN2)c1 (stereo unspecified)")
-1.64
>>> obs_value("CCCCC/C=C\\C/C=C\\C/C=C\\C/C=C\\CCCC(=O)Nc1ccc(O)cc1")
4.52
>>> obs_value("C[C@]12CC[C@H]3[C@@H](CCC4=CC(=O)CC[C@@]43C)[C@@H]1CC[C@@H]2O")
0.39

For each of the items listed, what is its inhibition?
1. Cc1nnc2n1-c1ccc(Cl)cc1C(c1ccccc1)=NC2
2. COc1ccc(C(CN(C)C)C2(O)CCCCC2)cc1 (stereo unspecified)

Output:
1. -1.64
2. 1.44
